The entries below come with measured normalized growth values attached.
test: chemical genetic growth profiling, strain panel (AID 1159580);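 further: tested at 20 µM; growth read once vehicle control cultures reached saturation at 30 °C; 1 = growth at the plate median or of vehicle wells; lower values mean less growth of the strain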; conditions: S. cerevisiae deletion strains, growth OD, locus YGL078C, strain dbp3, stronger effect = lower value
Screen size: about 5,500 compounds; about 2,000 (36%) were called active. Another 18% or so got no clear call; they are omitted. Some of the results follow.
MEASURED_PARAMETER: normalized growth

1. C#C[C@]1(O)CCC2C3CCC4=C(CCC(=O)C4)C3CC[C@@]21C (some centres undefined) : 0.995
2. C/C=C(/C)C(=O)O[C@H]1CC[C@@]2(C)[C@@H]3CC[C@H]4[C@]5(O)C[C@H](O)[C@@]6(O)[C@@H](CN7C[C@@H](C)CC[C@H]7[C@@]6(C)O)[C@]5(O)C[C@@]42O[C@]13O : 0.993
3. C#C[C@]1(O)CCC2C3CCC4=CC(=O)CC[C@@H]4C3CC[C@@]21C (some centres undefined) : 0.979
4. C/C=C(/C)C(=O)OC1CCC2(C)C3CCC4C5(O)CC(O)C6(O)C(CN7CC(C)CCC7C6(C)O)C5(O)CC42OC13O (centres undefined) : 0.989

* * *

test: chemical genetic growth profiling, strain panel (AID 1159580); conditions: S. cerevisiae deletion strains, growth OD, locus YJL115W, strain asf1
The whole screen tested about 5,500 compounds, of which about 2,000 (36%) were called active. Inconclusive results (about 18%) are left out. Rule as the data show it: active = normalized growth mostly below about 0.91 (no sharp cut-off); inconclusive = no clear call, values can overlap the other calls; inactive = mostly above about 0.92. The list shows a part of the results.
Possible outcomes: active, inactive

1) Nc1c2c(nc3ccccc13)CCCC2O (stereo not drawn) : inactive
2) NNc1nncc2ccccc12 : inactive
3) Nc1c2ccccc2nc2ccccc12 (tested in a mixture with another compound) : active

* * *

assay: chemical genetic growth profiling, strain panel (AID 1159580); conditions: S. cerevisiae deletion strains, growth OD, locus YMR219W, strain ESC1, stronger effect = lower value
The whole screen tested about 5,500 compounds, of which about 2,000 (36%) were called active. Another 18% or so got no clear call; they are omitted. Some of the results follow.
The entries below come with measured normalized growth values attached.
MEASURED_PARAMETER: normalized growth

1) CC(C)c1ccccc1NC(=S)N1CCN(c2ncc(C(F)(F)F)cc2Cl)CC1 : 0.992
2) FC(F)(F)c1cnc(N2CCN(C(=S)Nc3ccccc3)CC2)c(Cl)c1 : 1.02
3) S=c1[nH]nc(SCCSc2n[nH]c(=S)s2)s1 : 0.969
4) O=[N+]([O-])c1ccccc1SCc1n[nH]c(=S)n1-c1cccc(C(F)(F)F)c1 : 0.992
5) CC12CCC3C4CCC(=O)C=C4CCC3C1CCC2=O (stereo not given) : 1.01

* * *

assay: chemical genetic growth profiling, strain panel (AID 1159580);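 further: tested at 20 µM; growth read once vehicle control cultures reached saturation at 30 °C; 1 = growth at the plate median or of vehicle wells; lower values mean less growth of the strain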; settings: S. cerevisiae deletion strains, growth OD, locus YJL168C, strain set2, stronger effect = lower value
Hit rate of the full screen: of about 5,500 compounds, about 2,000 (36%) were called active. About 18% were inconclusive and are not listed. The list shows a part of the results.
MEASURED_PARAMETER: normalized growth

1) C#C[C@]1(O)CCC2C3CCC4=CC(=O)CC[C@@H]4C3CC[C@@]21C (stereo partly drawn) : 0.984
2) O=C1c2c(O)cccc2Cc2cccc(O)c21 : 0.99
3) C#C[C@]1(OC(C)=O)CCC2C3CCC4=CC(=O)CC[C@@H]4C3CC[C@@]21C (stereo partly drawn) : 0.97
4) COc1ccc2c3c([nH]c2c1)C(C)=NCC3 : 0.986
5) Cc1cc(O)cc(C)c1Cl : 1
6) CCC(C)C(NC)C(=O)O (stereo not drawn) : 0.993
7) C#C[C@]1(O)CCC2C3CCC4=C(CCC(=O)C4)C3CC[C@@]21C (stereo partly drawn) : 1
8) CCC(C)C(=O)O[C@H]1[C@H](O)C2C(CN3CC(C)CCC3[C@@]2(C)O)C2C[C@]34O[C@]5(O)C(OC(=O)C(C)(O)CC)CC[C@@]3(C)C5C(OC(C)=O)[C@@H](OC(C)=O)C4[C@@]21O (stereo partly drawn) : 0.996
9) Nc1c2ccccc2nc2ccccc12 (tested in a mixture with another compound) : 0.946
10) COC(=O)C[C@H]1C(C)(C)C2(O)OC34CC2C(=O)[C@]1(C)C3CC[C@]1(C)C4=CC(=O)O[C@H]1c1ccoc1 (stereo partly drawn) : 0.996
11) CCCOc1ccccc1-c1nc2n[nH]nc2c(=O)[nH]1 : 1.01
12) COc1c(CC(=O)c2cc3c(cc2O)OC(C)(C)C(O)C3)ccc2c1C=CC(C)(C)O2 (stereo not drawn) : 1.02
13) Nc1c2c(nc3ccccc13)CCCC2O (stereo not drawn) : 0.991
14) CCOP(=S)(OCC)Oc1nc(Cl)c(Cl)cc1Cl : 0.988
15) Cc1cc(O)ccc1Cl : 1.01
16) NNC(=O)c1ccncc1 : 0.992
17) COC(=O)Nc1nc2ccc(Sc3ccccc3)cc2[nH]1 : 1
18) Cc1cc(O)cc(O)c1C(=O)O : 1.02
19) CC(=O)/C=C\[C@@H]1[C@@]2(C)CCCC(C)(C)C2CC[C@@]1(C)O (stereo partly drawn) : 0.976
20) Nc1c2c(nc3ccccc13)CCCC2 : 1.01
21) C[C@]12CCC(=O)C=C1CCC1C2[C@@H](O)C[C@@]2(C)C1CC[C@]2(O)C(=O)CO (stereo partly drawn) : 0.999
22) CNC(=O)O/N=C\C(C)(C)SC : 0.98
23) C=C/C(C)=C\CC1C(C)(O)CCC2C(C)(C)CCCC21C (stereo not drawn) : 0.203

* * *

assay: chemical genetic growth profiling, strain panel (AID 1159580);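 further: tested at 20 µM; growth read once vehicle control cultures reached saturation at 30 °C; 1 = growth at the plate median or of vehicle wells; lower values mean less growth of the strain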; settings: S. cerevisiae deletion strains, growth OD, locus YOR329C, strain SCD5, stronger effect = lower value
In all, about 5,500 compounds went through this assay and about 2,000 (36%) were called active. Another 18% or so got no clear call; they are omitted. The list shows a part of the results.
MEASURED_PARAMETER: normalized growth

1. Cc1ccc(S(=O)(=O)n2c(Sc3ccc([N+](=O)[O-])cc3[N+](=O)[O-])nc3cc(C)ccc32)cc1 : 0.968
2. Nc1ccc(Sc2ccccc2)nc1Sc1ccccc1 : 0.962
3. COC(=O)c1cnn(-c2c(Cl)cccc2Cl)c1C=C(C#N)C#N : 0.947
4. Fc1ccc(NC(=S)N2CCCN(Cc3ccc(Cl)cc3Cl)CC2)cc1 : 0.986
5. O=C(c1cccs1)N(Cc1cccnc1)Cc1ccc(Cl)cc1Cl : 0.972
6. CSc1n[nH]c(-c2cc(C(F)(F)F)cc(C(F)(F)F)c2)n1 : 0.95
7. CCCc1nc(-c2ccccn2)[nH]c(=O)c1CC1CC1 : 0.952
8. Cc1nc(-c2ccccn2)[nH]c(=O)c1Cc1c(Cl)cccc1Cl : 0.958
9. N#Cc1c2ccccc2nc2ccccc12 : 0.829
10. OC1CCN(c2cc(C(F)(F)F)nc3cc(Cl)cc(Cl)c23)CC1 : 0.986
11. O=C(N/N=C\c1cc(Br)ccc1O)c1ccccc1Oc1ccccc1 : 0.968
12. O=C(NCC1COc2ccccc2O1)c1ccc(Cl)cc1 (centres undefined) : 0.938
13. COc1ccc2nc3ccccc3c(N)c2c1 : 0.607
14. O=C(c1ccc(Cl)cc1)N(Cc1ccccc1)Cc1cccnc1 : 0.991
15. Nc1ccccc1C(=O)N/N=C\c1cc(Br)ccc1O : 0.98
16. O=C(NCCNc1ncc(C(F)(F)F)cc1Cl)C(F)(F)Sc1ccccc1 : 0.987
17. Fc1cccc(Cl)c1CSc1n[nH]c(-c2cc(C(F)(F)F)cc(C(F)(F)F)c2)n1 : 0.983
18. O=C(NCCNc1ncc(Cl)cc1C(F)(F)F)C(F)(F)Sc1ccccc1 : 0.985
19. Cc1ccc(C)c(CSc2nc(C3CCCCC3)c(C#N)c(=O)[nH]2)c1 : 0.985
20. Clc1ccc2c(c1)c1ccccc1n2CN1CCOCC1 : 0.934
21. Brc1ccc2[nH]c3c(c2c1)CCC3 : 0.948
22. CC(C)(C)C(=O)N(Cc1cccnc1)Cc1ccc(Cl)cc1Cl : 0.996
23. Cc1nc(-c2ccccn2)nc(N(C)Cc2ccccc2)c1Cl : 0.955
24. C=CCc1c(CCC)nc(-c2ccccn2)[nH]c1=O : 0.941

* * *

assay: chemical genetic growth profiling, strain panel (AID 1159580);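 further: tested at 20 µM; growth read once vehicle control cultures reached saturation at 30 °C; 1 = growth at the plate median or of vehicle wells; lower values mean less growth of the strain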; details: S. cerevisiae deletion strains, growth OD, locus YHR094C, strain hxt1, stronger effect = lower value
In all, about 5,500 compounds went through this assay and about 2,000 (36%) were called active. About 18% were inconclusive and are not listed. The list shows a part of the results.
MEASURED_PARAMETER: normalized growth

1) COc1ccc2c(c1)c(CC(=O)OCC(=O)O)c(C)n2C(=O)c1ccc(Cl)cc1 : 1.01
2) C[C@H]1[C@H](C)CC[C@]2(CO)CC[C@]3(C)C(=CCC4[C@@]5(C)CC[C@H](O)C(C)(C)C5CC[C@]43C)[C@H]12 (stereo not given in full) : 1.03
3) O=C(COc1ccc(Cl)cc1)N1CCN(Cc2ccc3c(c2)OCO3)CC1 : 0.978
4) Nc1ccc(S(=O)(=O)c2ccc(N)cc2)cc1 : 1.01
5) C#C[C@]1(O)CCC2C3CCC4=C(CCC(=O)C4)C3CC[C@@]21C (stereo not given in full) : 0.997
6) Cc1cn([C@H]2C[C@H](N=[N+]=[N-])[C@@H](CO)O2)c(=O)[nH]c1=O : 1.01
7) C[C@]12CCC(=O)C=C1CCC1C2[C@@H](O)C[C@@]2(C)C1CC[C@]2(O)C(=O)CO (stereo not given in full) : 0.988
8) N=C(N)c1ccc(OCCCCCOc2ccc(C(=N)N)cc2)cc1 : 0.94
9) C#C[C@]1(O)CCC2C3CCC4=CC(=O)CC[C@@H]4C3CC[C@@]21C (stereo not given in full) : 0.981
10) Cc1ccc(S(=O)(=O)NC(=O)NN2CC3CCCC3C2)cc1 (stereo not given) : 1.01
